- Tgt: PD-1/PD-L1 (Homo sapiens)
- Construct: made in house; host or cells: HEK293T
- Sequence (Q9NZQ7 with tags, fused parts or gaps): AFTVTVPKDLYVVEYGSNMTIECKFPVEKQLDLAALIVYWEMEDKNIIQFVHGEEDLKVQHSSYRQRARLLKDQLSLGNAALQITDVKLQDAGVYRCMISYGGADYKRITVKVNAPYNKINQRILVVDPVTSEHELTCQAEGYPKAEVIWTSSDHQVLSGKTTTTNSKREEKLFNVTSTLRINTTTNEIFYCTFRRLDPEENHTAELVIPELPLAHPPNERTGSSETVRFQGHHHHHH
- Protocol Text: PD-1/PD-L1 Homogenous Time-Resolved Fluorescence (HTRF) binding assay
- Study Conditions: PD-L1-His 10 nM, PD-1-Ig 20 nM; value given as range class; read-out: Range or IC50
pIC50: −log10 of the molar value.
Listed here: items and their measured pIC50.

{"Molecule": "Cc1c(COc2cc(OCc3cncc(C#N)c3)c(CN[C@](C)(CO)C(=O)O)cc2Cl)cccc1-c1cccc(OCCCN2CCC(CO)(C(=O)O)CC2)c1Cl", "pIC50": "8.00 to 9.68"}
{"Molecule": "CCOC(=O)C1(CO)CCN(CCCOc2cccc(-c3cccc(COc4cc(OCc5cncc(C#N)c5)c(CNC(C)(CO)CO)cc4Cl)c3C)c2Cl)C1 (stereo not drawn)", "pIC50": "8.00 to 9.68"}
{"Molecule": "Cc1c(OCCCNC[C@H](O)CO)cccc1-c1cccc(COc2cc(OCc3cncc(C#N)c3)c(CNC(CO)CO)cc2Cl)c1Cl", "pIC50": "8.00 to 9.68"}

Where do the numbers come from? From patent US10745382B2.
